# Test system: UACC-257 melanoma
# runDescription: NCI-60 one-dose screen, 48 h (100 = growth as untreated, 0 = no growth, -100 = all killed)
# conditionLabel: 10 µM unless noted
Compounds without any hit were thinned out: in the full panel of roughly 83,000, 20% have a hit.
Outcome: label 1 for growth of at least 60%; label 0 for anything lower.

structurestring=NS(=O)(=O)c1ccc(Nc2nc(SCC(=O)c3ccc(Cl)cc3)nc3c2CCCC3)cc1 assignedlabel="label 1"
structurestring=COc1cc(OC)cc(C(=O)Nc2cccc(C#Cc3cccc4[nH]nc(N)c34)c2)c1 assignedlabel="label 0"
structurestring=COc1cc(-c2nnc(SCc3ccc(O)c4ncccc34)n2-c2ccccc2)cc(OC)c1OC assignedlabel="label 0"
structurestring=NC(N)=Nc1ccc(Oc2cccc(Nc3ccc(Br)c(C(F)(F)F)c3)c2)cn1 assignedlabel="label 0"
structurestring=N/C(=N\C(N)=N\c1nc2ccccc2s1)c1ccc2ccccc2c1 assignedlabel="label 1"
structurestring=O=C(NNc1nc2cc(F)cc(F)c2n2cccc12)c1cnccn1 assignedlabel="label 0"
structurestring=N#Cc1c(-c2cccs2)cc(-c2cnccn2)nc1SCC(=O)c1ccc(F)cc1 assignedlabel="label 1"
structurestring=COc1ccccc1NC1=C(Cl)C(=O)c2nc(C)ccc2C1=O assignedlabel="label 0"
structurestring=NC(N)=Nc1ccc(Oc2cccc(NC(N)=Nc3ccc(Cl)c(C(F)(F)F)c3)c2)cc1 assignedlabel="label 0"
structurestring=CN1CCN(Cc2ccc(NC(=O)c3cncc(C#Cc4cnc5ccc(OCC(C)(C)O)nn45)c3)cc2C(F)(F)F)CC1 assignedlabel="label 0"

###

# Tested on: MOLT-4 leukemia
# runDescription: NCI-60 one-dose screen, 48 h
# conditionLabel: 10 µM unless noted
Compounds without any hit were thinned out: in the full panel of roughly 83,000, 20% have a hit. Active and inactive are the calls of the source. How the source made its calls: active means growth percent below 10; inactive means the rest.
Outcomes: active, inactive

molecule=COc1cc(-c2ccc3ncnc(NCc4ccccc4)c3c2)cnc1OC assignedlabel=inactive
molecule=COc1ccc(-c2nc3cc(Cl)c(Cl)cc3n2CC(=O)N=Nc2c(O)[nH]c3ccc(OC)cc23)cc1 assignedlabel=inactive
molecule=COc1cc(-c2nn(C(C)(C)C)cc2-c2ccnc(NCCCNS(=O)(=O)c3ccccc3)n2)ccc1Cl assignedlabel=inactive
molecule=COc1ccc(/C=C/C(=O)c2cccc(NC(=O)CSc3nc4ccccc4c(=O)n3-c3ccccc3)c2)cc1OC assignedlabel=inactive
molecule=N#Cc1cccc(NC(=O)c2cc(-c3ccc(F)cc3F)ccc2O)c1 assignedlabel=active
molecule=Nc1ncc(-c2ccc3ncnc(N4CCc5cc(F)c(Cl)cc54)c3c2)cn1 assignedlabel=active
molecule=COc1ccc(NC(=O)Nc2ccc3c(ccn3C(=O)c3cccc(F)c3)c2)cc1 assignedlabel=inactive
molecule="Nc1nc(N)c2c(n1)NC(c1ccc(Cl)cc1)CC(c1ccc(Nc3nc(NCCO)nc(N4CCOCC4)n3)cc1)=N2 (stereo not drawn)" assignedlabel=inactive
molecule=c1cn2c(ccc3nc(-c4cn[nH]c4)c4c(c32)CCCC4)n1 assignedlabel=inactive
molecule=NS(=O)(=O)c1ccc(Nc2cc(-c3ccccc3)nc(SCC(=O)c3ccccc3)n2)cc1 assignedlabel=inactive
molecule="CNc1ncc2cc(-c3ccc(-c4ncccc4F)cc3Cl)c(=O)n(CC3OCC(N)CO3)c2n1 (stereo not drawn)" assignedlabel=inactive
molecule=O=C(CSc1nc2ccccc2c(=O)n1-c1ccccc1)Nc1cccc(C(=O)/C=C/c2ccccc2Cl)c1 assignedlabel=inactive
molecule=C#CCC#CCN1CCC[C@H]1C(=O)NCC(=O)OC assignedlabel=inactive
molecule=CN1CCN(Cc2ccc(NC(=O)c3cncc(C#Cc4cnc5ccc(OCC6(C)COC6)nn45)c3)cc2C(F)(F)F)CC1 assignedlabel=active
molecule=C[C@H](CCC(=O)NCc1ccc(C(=O)Nc2ccccc2N)cc1)[C@H]1CC[C@H]2[C@@H]3[C@@H](O)C[C@@H]4C[C@H](O)CC[C@]4(C)[C@H]3CC[C@]12C assignedlabel=inactive
molecule="Nc1nc(N)c2c(n1)NC(c1ccc(C(F)(F)F)cc1)CC(c1ccc(Nc3nc(NCCO)nc(N4CCOCC4)n3)cc1)=N2 (stereo not drawn)" assignedlabel=inactive
molecule=C[C@@H](Nc1ncnc2ccc(-c3cnc(Cl)c(NS(C)(=O)=O)c3)cc12)c1ccccc1 assignedlabel=inactive
molecule=CC(C)(C)n1cc(-c2ccnc(NCCCNS(=O)(=O)c3cccc(F)c3)n2)c(-c2ccc(Cl)c(O)c2)n1 assignedlabel=inactive

###

# System: 786-0 renal
# runDescription: NCI-60 one-dose screen, 48 h
# conditionLabel: 10 µM unless noted
Compounds without any hit were thinned out: in the full panel of roughly 83,000, 20% have a hit. The source made the active and inactive calls. How the source made its calls: active means growth percent below 10; inactive means the rest.
Outcomes: class 1 = active, class 0 = inactive

compound=COC[C@]12CCC(C)(C)C[C@H]1C1=CC[C@@H]3[C@@]4(C)CCCNC(C)(C)[C@@H]4CC[C@@]3(C)[C@]1(C)CC2 assignedlabel="class 1"
compound=COc1cc(OC)cc(C(=O)Nc2sc3c(c2C(N)=O)CCC(=O)C3)c1 assignedlabel="class 0"
compound=CCOC(=O)c1c(Nc2ccccc2)nn2c(-c3ccc(Cl)cc3)ccnc12 assignedlabel="class 0"
compound=CCOC(=O)c1c(Nc2ccccc2)nn2c(-c3ccccc3)ccnc12 assignedlabel="class 0"
compound=CC1(C)CC[C@]2(CN)CC[C@]3(C)C(=CC[C@@H]4[C@@]5(C)CCCNC(C)(C)[C@@H]5CC[C@]43C)[C@H]2C1 assignedlabel="class 0"
compound="COc1c(N2CC3CCCNC3C2)c(F)cc2c(=O)c(C(=O)N/N=C/c3ccc4c(c3)OCO4)cn(C3CC3)c12 (stereo not drawn)" assignedlabel="class 0"
compound=CC(=O)c1ccc(Nc2nc(SCC(C)C)nc(-c3ccc(F)cc3)c2C#N)cc1 assignedlabel="class 0"
compound=C=CCN(C)S(=O)(=O)/N=C1\NC(=O)NC1=C(Cl)Cl assignedlabel="class 0"
compound=FC(F)(F)c1cc(Nc2cccc(Oc3ccc(NC4=NCCN4)nc3)c2)ccc1Cl assignedlabel="class 1"
compound=CNC(=O)c1cc(-n2ccc3cc(NC(=O)Nc4ccc(N5CCOCC5)c(C(F)(F)F)c4)ccc32)ccn1 assignedlabel="class 0"
compound=CN1CCN(Cc2ccc(NC(=O)c3cncc(C#Cc4cnc5ccc(NCCCO)nn45)c3)cc2C(F)(F)F)CC1 assignedlabel="class 1"
compound=COc1ccccc1NCc1cccn1Cc1ccc(F)cc1 assignedlabel="class 0"
compound=CCOP(=O)(OCC)OC[C@]12CCC(C)(C)C=C1[C@H]1CC[C@@H]3[C@@]4(C)CC[C@H](OP(=O)(OCC)OCC)C(C)(C)[C@@H]4CC[C@@]3(C)[C@]1(C)CC2 assignedlabel="class 1"
compound="CCO/C=N/C1=C(C#N)C(c2ccc(OC)cc2)c2sc3c(C)cccc3c2O1 (stereo not drawn)" assignedlabel="class 0"
compound="COC(=O)/C=C/c1c(C2(C)NC(=O)c3ccccc3N2)c(=O)oc2ccc(Cl)cc12 (stereo not drawn)" assignedlabel="class 0"
compound=COc1cccc(C(=O)Nc2cccc(C#Cc3cccc4[nH]nc(N)c34)c2)c1 assignedlabel="class 0"
compound=C=C(C=O)[C@@H]1CC[C@]2(C)[C@H](C(=O)C=C3[C@H]4C[C@](C)(C(=O)OC)CC[C@]4(C)CC[C@]32C)[C@@]1(C)CCC#N assignedlabel="class 0"
compound="COc1cc2c(cc1OC)C(Sc1ccc(F)cc1)c1c(nc(N)c(C#N)c1N)O2 (stereo not drawn)" assignedlabel="class 1"

###

# System: SK-MEL-2 melanoma
# runDescription: NCI-60 one-dose screen, 48 h
# conditionLabel: 10 µM unless noted
This is part of a sample that, as a whole, favours compounds with a hit. Of some 83,000 tested, about 20% had one in any assay. Active and inactive are the calls of the source. How the source made its calls: active means growth percent below 10; inactive means the rest.
Outcomes: 1 for active, -1 for inactive

compound=Cc1nn(-c2ccccc2)c2ncnc(N/N=C/c3cccc(O)c3)c12 targetundertest="SK-MEL-2 melanoma" assignedlabel=-1
compound=C=CCn1c(SCC(=O)Nc2ccc(C(=O)/C=C/c3ccc(Cl)cc3)cc2)nnc1-c1c[nH]c2ccccc12 targetundertest="SK-MEL-2 melanoma" assignedlabel=-1
compound=C#Cc1nc(C(=O)NCCC(=O)Nc2ccc(NC(=O)c3ccc(/C=C/C(=O)c4nccn4C)cc3)cc2)cs1 targetundertest="SK-MEL-2 melanoma" assignedlabel=-1
compound=O=C1Nc2ccccc2/C1=C/c1ccc(CO)n1-c1ccc(Cl)cc1 targetundertest="SK-MEL-2 melanoma" assignedlabel=-1
compound=CN1CCN(c2ccc(/C=N/Nc3nc4ccccc4c(=O)n3-c3ccccc3)cc2)CC1 targetundertest="SK-MEL-2 melanoma" assignedlabel=-1
compound=NS(=O)(=O)c1ccc(Nc2cc(-c3ccccc3)nc(SCC(=O)c3ccccc3)n2)cc1 targetundertest="SK-MEL-2 melanoma" assignedlabel=-1
compound=CC(C)(C)c1ccc(C(=O)Nc2nc3ccc(O)cc3s2)cc1 targetundertest="SK-MEL-2 melanoma" assignedlabel=-1
compound=O=C(CCn1c[n+](CC(=O)c2ccc(F)cc2)c2ccccc21)Nc1cccc2cccnc12 targetundertest="SK-MEL-2 melanoma" assignedlabel=-1
compound=COc1ccccc1-n1cc(C#N)c(N)c1C(=O)c1ccc(C)cc1 targetundertest="SK-MEL-2 melanoma" assignedlabel=-1
compound=COc1cccc(N2CCN(c3ncnc4c3[nH]c3ccc(F)cc34)C[C@H]2C)c1 targetundertest="SK-MEL-2 melanoma" assignedlabel=-1
compound=C=C(C)[C@@H]1CC[C@]2(COP(=O)(OCC)OCC)CC[C@]3(C)[C@H](CC[C@@H]4[C@@]5(C)CCCNC(C)(C)[C@@H]5CC[C@]43C)[C@@H]12 targetundertest="SK-MEL-2 melanoma" assignedlabel=-1
compound=COc1cc(Cn2cc3c(c2)-c2onc(CN4CCCC4)c2CC3)cc(OC)c1OC targetundertest="SK-MEL-2 melanoma" assignedlabel=-1
compound="COc1cc(C2N=C(NNc3ccccc3)NC(C)=C2C(C)=O)ccc1O (centres undefined)" targetundertest="SK-MEL-2 melanoma" assignedlabel=-1
compound=O=C(CNc1nc(-c2cccc([N+](=O)[O-])c2)cs1)Nc1cccc([N+](=O)[O-])c1 targetundertest="SK-MEL-2 melanoma" assignedlabel=1
compound=O=C(NNc1nc2cc(F)c(F)cc2n2cccc12)c1cnccn1 targetundertest="SK-MEL-2 melanoma" assignedlabel=-1
compound=Clc1ccc(N/N=c2/oc3ccccc3cc2-c2cc3ccccc3[nH]2)cc1 targetundertest="SK-MEL-2 melanoma" assignedlabel=-1
compound=COc1ccccc1-n1cc(C#N)c(N)c1C(=O)c1ccc(Br)cc1 targetundertest="SK-MEL-2 melanoma" assignedlabel=-1
compound=COc1cc(OC)c(/C=C/S(=O)(=O)Cc2ccc(OC)c(NC(=O)CCC(=O)NO)c2)c(OC)c1 targetundertest="SK-MEL-2 melanoma" assignedlabel=-1
compound=CNC(=O)c1c(NC(=O)c2ccccc2C(F)(F)F)sc2c1CCC(=O)C2 targetundertest="SK-MEL-2 melanoma" assignedlabel=-1
